- EXPERIMENT: soluble fraction after stress (log2 fold change); higher = more stays soluble; pooled small domains, quantitative proteomics
- CONDITION_LABEL: stress: pH 4
// label = t if soluble fraction (log2) is not less than 0.1, otherwise f

// known answers, use as guide
HMNSTNYQVIITANGGLNIRAGASTAYARIGGYAKGTVVTILAESNGFGKTDKGWISLNYTSKDLD :: t
HMGPSLDAVREQIRDLIAEEDKSAPYSDLSLVAELEKRGIHISRRTIAKYRGEMGIPNSDQRRYF :: t
HMDKPIVFLEDTKAHKSSDLQSPVYMTVPKGTIAFVIAEKGDWSQVYAGRVLDRNLASQWVRRGFS :: t
HMLTRQRKQLLEYLSKHTDEQMTARQIADALTAESISISAVYRNLSALEEEGILKRSIRENTREVYYQYIA :: f
HMAVLGIQPVFHRSTGQTVYKSSVNTAKGRVYLGLFPTLTEALEIKLKYMQEHGHTKGITNLTNKLKEL :: t

stdin: Is reported soluble fraction (log2) greater than or equal to 0.1 here: `HMADYYSILGLTKNATDIEIKSAFRKLAKIYHPDKNPDPNARVLFEHILKAYDTLINPHSRRRYDSL`
stdout: t

stdin: Is reported soluble fraction (log2) greater than or equal to 0.1 here: `HMTGVPYLVRVKITDLHIRSGPGTNYASKGFIAPGAYTIVEESTGQGAALWGKLKSGKGWIALGYTEK`
stdout: f

stdin: Is reported soluble fraction (log2) greater than or equal to 0.1 here: `HMREVPHGEYEVKIEKLELVESKAGDPMVTVWFKVLAGDYKGSMIFMNQVITKGFQIHIMNEFLR`
stdout: f

###

- EXPERIMENT: soluble fraction after stress (log2 fold change); higher = more stays soluble; pooled small domains, quantitative proteomics
- CONDITION_LABEL: stress: pH 4
// label = 1 if soluble fraction (log2) is not less than -0.3, otherwise -1

// known answers, use as guide
HMEGEVVESPLVGVAYLASGPDKPAFVQVGDSVSKGQTLLIIEAMKVMNEVPAPRDGIVTEILV :: 1
HMATAADLLQSATGVPRSDALLLLAKLLGVAKERLIAHPETVVSEKTQATFSDWIERVRGGFPTTYLLG :: 1
HMDDENKIEVMINEEKVQLTGKDKYVFVDIFNYIDMDLTRIHGNLVLKLNGENASHNSLLKSGDKIEARWE :: -1
HMEIKDQADAYGKMEPASAAAILSEMTNDLTLVAKILDSMQTSKSALILQNMKPTTAAQVTTKMTAMK :: 1
HMDVSPVRLIREARGLSQVEVAKAAGLSRAAYQNIEVGKTVPRASTMVNIARALGVSMDDLLAPV :: 1

Proceed to the following item.
stdin: Is reported soluble fraction (log2) greater than or equal to -0.3 here: `HMAPAYELTEEETKIIEILKANENIDLNELKSQAALSGKKWDKSMKNLAKYNLTKVTVDGDAKTVAYLA`
stdout: -1

###

- EXPERIMENT: soluble fraction after stress (log2 fold change); higher = more stays soluble; pooled small domains, quantitative proteomics
- CONDITION_LABEL: stress: pH 4
MEASURED_PROPERTY: soluble fraction (log2)
Answers are plain numbers.

Worked examples follow.
HMEKIIGQIQINQRGNGYVIVPNVKDDIFVKRENLNSARQGDRVAVQLLSRPNQKPEGLVQEVLERGQ :: 0.071
HMQQIEIEEPITVKNLSAVAGLKASEIIAKLMKLGVMSTINQVMERQHAEEIAGEYGFELVVK :: -0.154
HMDSLELADEVGRVSEALQELRPHQREVLELSLVHGRSHQQISEKTGLALGTVKSHARRGLMRVREMLGV :: -0.162
HMSEYITEGWLREKFGLGWGTEVHLPLDSRLTPAAHQLLEERKIVIKYIDAEGRVFNPDKSGEEAPVQ :: -0.343
HMEIGELITLYRKQAGLTIDELSEKANVPKGTLNKIIGGITKAPTLETMRSIAYALGKKLADFDN :: 0.107
HMDKSLDFASIKSVEIATGRKFGWHALKKWSKSNSSEIKTIPDPNFGEVKTYHKDAWLAVYNINLSPILD :: -0.0629
HMQKTIDWSQVDKEQYLSAMERSPVNDLEIKAILAKALTSDINNRELFMKGLDHSYYFEGYQLFKSE :: -0.939
HMTIDANAIEKMVLDLIGEHPNEWGRYRDGDKKVQGFFVGQIMKATSGQADGKIVNQILSQHAEA :: 0.126

Parameter requested: soluble fraction (log2). Apply to each item below.
1. HMLSAGETYTLGYLKASDGILFTAADGSEQTVMQRVQVRLYDNGDGTYTARLADDIAYSAVVTEDMIDK
2. HMVDTSDLPAIVEKVFADNPEQVNDILNGKDRVKGFLVGQIMKATRGQAPPDEVNKLIDATLEKMKAA

stdout:
1. 0.256
2. 0.188

Parameter requested: soluble fraction (log2). Apply to each item below.
1. HMRMNASERQNQIVDLLSQNGVMKIMDIADHFNVSRETIRRDLIILEDDNRIKKWFGGVISAN
2. HMSPILTPDQATKAYGKDGVLYIHSNKERTIYIYDVTGRTVRILEAVEGENQINGLEKGIYFLEGQKVAV
3. HMITLPDFVGKDVETVKAWAKENGITLIVNKVEDSAKKDTVISQTPTTYDYSKIMKGSSFTVNVAKE
4. HMRKPLDQSWVPDDDAMKILTNSGIEKEFIKNEIPEFILYWSDKGEISDSWNTKFISQIRRQWAKNQ
5. HMRSSNEAVSQRRDKILDYISATGRTSTEIVAKEFGVSVMTARRDLLYLMEKRLISKSSSGLFKVDNN
6. HMSTMLPFVMRELVELVMKKKALPLGDALYYIYSSKLYKSLLDKSTKLWYSSTLSLYETLEKEKTEEKRRY
7. HMRIEYYDDEELDRYIGTPASGYREAAVEEFREILLTLDADDVPGWVRSLQLRGIEFPESLRPELYL

stdout:
1. -0.219
2. -0.378
3. 0.0768
4. -0.465
5. 0.408
6. -0.802
7. -1.5

Origin of measurements: the domain aggregation screens of Martell et al. (2025)
